B1: library; numbered along this chain (parent)
chain: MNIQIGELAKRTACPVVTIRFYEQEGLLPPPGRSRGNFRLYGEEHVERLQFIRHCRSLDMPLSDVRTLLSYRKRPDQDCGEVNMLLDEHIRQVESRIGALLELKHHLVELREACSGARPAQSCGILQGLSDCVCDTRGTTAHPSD

variants of: B1; experiment: sfGFP reporter fluorescence (15 h) (µM FITC); higher = higher leak; conditions: library round: Round 0; ligand: none
For each of the variants below, state its sfGFP reporter fluorescence.
Give bare numbers.

Sample records with sfGFP reporter fluorescence:
P30M :: 0.0632
M60L P61N G128M :: 0.822
G128A :: 0.0969
D135H :: 0.0665
L58V :: 0.0583

Please give sfGFP reporter fluorescence for each item listed below.
1. M60R
2. L28S
3. I3F
4. D131M
5. D64K
6. E109C
7. I97T
8. C123V

A:
1: 0.0614; 2: 0.0627; 3: 0.0555; 4: 0.0687; 5: 0.154; 6: 0.0596; 7: 0.0579; 8: 0.0559
